- System: Vero E6
- assay_info: cell viability relative to DMSO; higher = less toxic
- test_settings: 72 h; 100 nM
readout_name: cell viability (%)
One number for each entry, in %.

| molecule | test_system | reported_measurement |
| --- | --- | --- |
| COC(=O)C1=CO[C@@H](O)[C@@H]2C(CO)=CC[C@H]12 [genipin] | Vero E6 | 95.7 |
| Cc1nc(N)sc1-c1ccnc(Nc2ccc(N3CCOCC3)cc2)n1 [CYC116] | Vero E6 | 99 |
| C[N+]1(C)[C@@H]2C[C@@H](OC(=O)C(O)(c3cccs3)c3cccs3)C[C@H]1[C@@H]1O[C@@H]12 [tiotropium] | Vero E6 | 101 |
| CC[C@]12CCCN3CCc4c(n(c5ccccc45)C(=O)C1)[C@@H]32 [vinburnine] | Vero E6 | 100 |
| Cc1ncc([N+](=O)[O-])n1CCO [metronidazole] | Vero E6 | 96.2 |

Quick one: give me cell viability for each item below, same order please.
1. OC1(c2ccc(Cl)c(C(F)(F)F)c2)CCN(CCCC(c2ccc(F)cc2)c2ccc(F)cc2)CC1 [penfluridol]
2. CN1CCN(CCc2ccc(Cl)c(Cl)c2)CC1 [BD-1063]
3. CO/N=C(\C(=O)N[C@@H]1C(=O)N2C(C(=O)O)=CCS[C@H]12)c1csc(N)n1 [ceftizoxim]
4. CCCCCCCC/C=C\CCCCCCCC(=O)NCCc1ccc(O)c(O)c1 [OLDA]

94.1
105
95.2
99

Values from the supplement of paper PMC13380429
